assay: Cmax in fasted Sprague-Dawley rat at 3 mg/kg, po after 6 to 24 hrs by LC-MS/MS analysis; type: ADME, organism-based; set-up: dose 3 mg/kg, route oral; settings: in vivo
experimental readout: Cmax (ng/mL)
The reply should contain only the number, in ng/mL.

In one line, give reported Cmax of the entry C[C@@H]1CCCN1CCCOc1ccc(-c2ccc(=O)[nH]n2)cc1.Cl [IRDABISANT HYDROCHLORIDE] .
270

* * *

assay: Ratio of drug uptake in brain to plasma of Beagle dog at 5 mg/kg, po after 6 to 24 hrs by LC-MS/MS analysis; type: ADME, organism-based, Canis lupus familiaris; set-up: dose 5 mg/kg, route oral; settings: read-out: BPR
experimental readout: Kp
Write the number on its own, no unit after it.

Quote Kp reported for C[C@@H]1CCCN1CCCOc1ccc(-c2ccc(=O)[nH]n2)cc1.Cl [IRDABISANT HYDROCHLORIDE] please.
2.4

Attribution: ChEMBL document CHEMBL1811886
